Overview of reported Kd across a group of binders:
TARGET_DESC: Chymotrypsin (CTRC) (bovine (pancreas), UniProt P00766 1-245)
ASSAY_EXPLANATION: bead-based affinity chromatography, fluorescence; PBS pH 7.4, room temperature, 1 h; EMSA 500 nM oligo + 200 µM protein, 5% agarose; bead assay with bead-immobilized protein, Alexa488 oligo 1-60 nM (lysozyme) o
PROPERTY_NAME: Kd (µM)

1) oligonucleotide 2, Alexa488 (ssDNA) DNA: CGGTCCTCAGATGTGATTCCATCCTTCTTTTGAGCAAACTACCTGTATAACGTAAGTCCGTGTGTGCGAA
3.3
2) ATAAATTTAAGACATGAAAAAATAAATTTTTATTTTTTTACGTTTTTATT (ssDNA) [oligonucleotide 1, Alexa488]
1.4
